TEST PARAMETERS: mouse, in vivo, ip, 100 mg/kg
Starred links: 1 amine or outer side, 2 acyl side, 3 side chain; linkers in the order of their positions; H or OH if unused. Non-standard residues stand in square brackets, D forms with d. Residues, ends and D or L forms follow the SMILES beside them. *: point of attachment. X1 = CC[C@@H](C)[C@@H](O[*:1])C(=O)[*:2]; NMeVal(β-OH) = CN[C@H](C(=O)O)C(C)(C)O; NMeF = CN[C@@H](Cc1ccccc1)C(=O)O; aIle = CC[C@@H](C)[C@H](N)C(=O)O; Nva(5-OH) = N[C@@H](CCCO)C(=O)O; NMeV = CN[C@H](C(=O)O)C(C)C; OBn = c1ccc(CO*)cc1

[
  {
    "MOLECULE": "CC[C@@H](C)[C@H]1OC(=O)[C@H](C(C)(C)O)N(C)C(=O)[C@H](CC(C)C)NC(=O)[C@H](C(C)C)N(C)C(=O)[C@H](CCC(=O)OCc2ccccc2)NC(=O)[C@@H]2CCCN2C(=O)[C@H](Cc2ccccc2)N(C)C(=O)[C@H](Cc2ccccc2)NC(=O)[C@H](C(C)C)N(C)C1=O [Compound 26] (cyclo(E(OBn)[NMeV]L[NMeVal(β-OH)][X1][NMeV]F[NMeF]P))",
    "toxicity signs": "no toxicity signs"
  },
  {
    "MOLECULE": "CC[C@@H](C)[C@@H]1NC(=O)[C@@H]2CCCN2C(=O)[C@H](Cc2ccccc2)N(C)C(=O)[C@H](Cc2ccccc2)NC(=O)[C@H](C(C)C)N(C)C(=O)[C@@H]([C@H](C)CC)OC(=O)[C@H](C(C)(C)O)N(C)C(=O)[C@H](CCCO)NC(=O)[C@H](C(C)C)N(C)C1=O [Compound 39] (cyclo(F[NMeF]P[aIle][NMeV][Nva(5-OH)][NMeVal(β-OH)][X1][NMeV]))",
    "toxicity signs": "no toxicity signs"
  }
]

====

TEST PARAMETERS: mouse, in vivo, ip, 100 mg/kg
Starred links: 1 amine or outer side, 2 acyl side, 3 side chain; linkers in the order of their positions; H or OH if unused. Non-standard residues stand in square brackets, D forms with d. Residues, ends and D or L forms follow the SMILES beside them. NMePhe(2-F) = CN[C@@H](Cc1ccccc1F)C(=O)O; X1 = CC[C@@H](C)[C@@H](O[*:1])C(=O)[*:2]; NMeVal(β-OH) = CN[C@H](C(=O)O)C(C)(C)O; Phe(2-F) = N[C@@H](Cc1ccccc1F)C(=O)O; NMeF = CN[C@@H](Cc1ccccc1)C(=O)O; aIle = CC[C@@H](C)[C@H](N)C(=O)O; NMeV = CN[C@H](C(=O)O)C(C)C; Nva = CCC[C@H](N)C(=O)O
PROPERTY: toxicity signs

[
  {
    "COMPOUND": "CCC[C@@H]1NC(=O)[C@H](C(C)C)N(C)C(=O)[C@H]([C@H](C)CC)NC(=O)[C@@H]2CCCN2C(=O)[C@H](Cc2ccccc2)N(C)C(=O)[C@H](Cc2ccccc2)NC(=O)[C@H](C(C)C)N(C)C(=O)[C@@H]([C@H](C)CC)OC(=O)[C@H](C(C)(C)O)N(C)C1=O [Compound 12] (cyclo(F[NMeF]P[aIle][NMeV][Nva][NMeVal(β-OH)][X1][NMeV]))",
    "MEASURED VALUE": "no toxicity signs"
  },
  {
    "COMPOUND": "CC[C@@H](C)[C@@H]1NC(=O)[C@@H]2CCCN2C(=O)[C@H](Cc2ccccc2F)N(C)C(=O)[C@H](Cc2ccccc2F)NC(=O)[C@H](C(C)C)N(C)C(=O)[C@@H]([C@H](C)CC)OC(=O)[C@H](C(C)(C)O)N(C)C(=O)[C@H](CC(C)C)NC(=O)[C@H](C(C)C)N(C)C1=O [Compound 7] (cyclo(L[NMeVal(β-OH)][X1][NMeV][Phe(2-F)][NMePhe(2-F)]P[aIle][NMeV]))",
    "MEASURED VALUE": "no toxicity signs"
  }
]
